Overview of recorded growth for various compounds
- Tested on: CCRF-CEM leukemia
- Assay: NCI-60 one-dose screen, 48 h (100 = growth as untreated, 0 = no growth, -100 = all killed)
- Settings: 10 µM
The panel holds about 83,000 compounds, 20% with a hit somewhere; the sample as a whole holds those more often.
Readout name: growth (%)

compound=Cc1ccc2oc(=O)cc(/C(=C3/C=CC=N3)c3ccc[nH]3)c2c1 measured_target="CCRF-CEM leukemia" readout_name=growth observed_value=10.4
compound=Cc1cccc2c(Nc3ccc(NS(C)(=O)=O)cc3)c3ccc([N+](=O)[O-])cc3nc12 measured_target="CCRF-CEM leukemia" readout_name=growth observed_value=-9.83
compound="CN1/C(=C\\C(I)C(I)C2=[N+](C)c3ccccc3C2(C)C)C(C)(C)c2ccccc21 (centres undefined)" measured_target="CCRF-CEM leukemia" readout_name=growth observed_value=12.1
compound="COc1ccc(C2CC(c3ccc(-c4ccccc4)cc3)=NN2c2ccc(S(N)(=O)=O)cc2)cc1 (centres undefined)" measured_target="CCRF-CEM leukemia" readout_name=growth observed_value=51.7
compound="COc1ccc(C2C=C(c3ccc(Cl)c(Cl)c3)N=C3SC(C)=CN32)cc1 (centres undefined)" measured_target="CCRF-CEM leukemia" readout_name=growth observed_value=82.8
compound=COc1cc(-c2c(C#N)c(N)n3c(nc4ccccc43)c2C#N)cc(Br)c1OC measured_target="CCRF-CEM leukemia" readout_name=growth observed_value=19.6
compound="COc1ccc(/C=C2\\CCC3C(CCCC34OCCO4)C2=O)cc1 (centres undefined)" measured_target="CCRF-CEM leukemia" readout_name=growth observed_value=79.1
compound=COc1cc(CSc2nc3ccc(C)cc3c(=O)n2Cc2ccccc2)cc(OC)c1OC measured_target="CCRF-CEM leukemia" readout_name=growth observed_value=23.6
compound=Cc1ccc([P+](Cc2ccc([N+](=O)[O-])cc2)(c2ccc(C)cc2)c2ccc(C)cc2)cc1 measured_target="CCRF-CEM leukemia" readout_name=growth observed_value=24.5
compound="CCC(O)c1ccc(Br)cc1NC(=O)c1cccc(Cl)c1 (centres undefined)" measured_target="CCRF-CEM leukemia" readout_name=growth observed_value=6.46
compound=COc1ccc(-c2nnc(SC/C(=N\O)c3ccccc3)o2)cc1 measured_target="CCRF-CEM leukemia" readout_name=growth observed_value=88.9
compound=O=C(COc1ccc(-c2nc3ccccc3[nH]2)cc1)N=Nc1c(O)[nH]c2ccccc12 measured_target="CCRF-CEM leukemia" readout_name=growth observed_value=4.95
compound=O=C1CC(c2cccc(-c3cccnc3)c2)=Nc2ccc(Br)cc2N1 measured_target="CCRF-CEM leukemia" readout_name=growth observed_value=50.8
compound=COc1ccc(-c2csc(-c3cc(Cl)cc(Cl)c3Cl)n2)cc1 measured_target="CCRF-CEM leukemia" readout_name=growth observed_value=97.4
compound="Cc1cc(O)c(C2=NN(c3ccc(S(N)(=O)=O)cc3)C(c3ccc(N(C)C)cc3)C2)c(C)c1Cl (centres undefined)" measured_target="CCRF-CEM leukemia" readout_name=growth observed_value=28
compound=Cc1ccc2c(c1)-c1cc(C)nn1-c1ccc(C#N)cc1O2 measured_target="CCRF-CEM leukemia" readout_name=growth observed_value=46.2
compound=COC(=O)[C@]12CC[C@@H](C)[C@H](C)[C@@H]1C1=CC[C@@H]3[C@@]4(C)C[C@@H](O)[C@H](O)[C@@](C)(CO)[C@@H]4[C@H](O)C[C@@]3(C)[C@]1(C)CC2 measured_target="CCRF-CEM leukemia" readout_name=growth observed_value=-43.7
compound=COc1cc(C(=O)n2nc(N)c3c(C)cc(C)nc32)cc(OC)c1OC measured_target="CCRF-CEM leukemia" readout_name=growth observed_value=57.6
compound=Cc1cccc2c1O/C(=C\c1ncc([N+](=O)[O-])n1C)C2=O measured_target="CCRF-CEM leukemia" readout_name=growth observed_value=5.23
compound=COc1ccc(Cn2cc3c(c2-c2ccccc2)CC(C)(C)c2cnoc2-3)cc1 measured_target="CCRF-CEM leukemia" readout_name=growth observed_value=22.7
compound="Cc1cc(=O)oc2cc(OCc3cn(CC(O)CO)nn3)ccc12 (centres undefined)" measured_target="CCRF-CEM leukemia" readout_name=growth observed_value=92.5
compound=CCOC(=O)Nc1ccc2c(c1)C(=O)N(CCOC)c1ccccc1O2 measured_target="CCRF-CEM leukemia" readout_name=growth observed_value=20.6
compound=C[C@@H]1N=C(c2ccc(Br)cc2)Nc2nc3ccccn3c2C1=O measured_target="CCRF-CEM leukemia" readout_name=growth observed_value=79.4
compound=CC(C)C[C@H](NC(=O)Cn1ccc(Nc2ccccc2)cc1=O)B(O)O measured_target="CCRF-CEM leukemia" readout_name=growth observed_value=3.67
compound=CCCCCCOc1ccc(/C=C/C(=O)c2ccc(B(O)O)cc2)cc1 measured_target="CCRF-CEM leukemia" readout_name=growth observed_value=59.1
compound=O=C(Nc1cccc(C(F)(F)F)c1)C(Cl)Cl measured_target="CCRF-CEM leukemia" readout_name=growth observed_value=98.8
compound=CC1(C)Cc2c(cn(Cc3ccccc3)c2-c2ccccc2)-c2oncc21 measured_target="CCRF-CEM leukemia" readout_name=growth observed_value=94.2
compound=COc1ccc2c(=O)cc(C(Cl)(Cl)Cl)oc2c1 measured_target="CCRF-CEM leukemia" readout_name=growth observed_value=-21.2
compound=N#Cc1ccc(-n2cnc(NC(=O)[C@H]3CCN(C#N)C3)c2)cc1 measured_target="CCRF-CEM leukemia" readout_name=growth observed_value=12.3
compound=COc1cc([C@@H]2c3cc4c(cc3[C@H](SC(=N)N)[C@H]3COC(=O)[C@H]23)OCO4)cc(OC)c1OC measured_target="CCRF-CEM leukemia" readout_name=growth observed_value=4.96
compound=COc1ccc(-c2csc(NC(=O)CO[N+](=O)[O-])n2)cc1 measured_target="CCRF-CEM leukemia" readout_name=growth observed_value=97.9
compound=COc1cc(-c2nc3ccc(C)cc3[nH]2)ccc1OCC(=O)N=Nc1c(O)[nH]c2ccccc12 measured_target="CCRF-CEM leukemia" readout_name=growth observed_value=-50
compound=Cn1c([N+](=O)[O-])cnc1/C=C1\Oc2ccc(Br)cc2C1=O measured_target="CCRF-CEM leukemia" readout_name=growth observed_value=5.39
compound=COc1ccc(-c2cc(=O)n(-c3nc4ccccc4[nH]3)[nH]2)cc1OC measured_target="CCRF-CEM leukemia" readout_name=growth observed_value=-4.05
